// cross-study collection: IC50 for UniProtKB P17252
Give bare numbers, in nM.

Observe how each entry below is paired with its result.
compound	endpoint_unit	IC50
CC1OC(n2c3ccccc3c3c4c(c5c6ccccc6[nH]c5c32)C(=O)N(C)C4=O)C(O)C(O)C1O (stereo in doubt; 13)	nM	82000
CC(=O)N[C@@H]1C[C@H](n2c3ccc(O)cc3c3c4c(c5c6ccccc6[nH]c5c32)CNC4=O)O[C@@H](C)[C@@H]1O	nM	460
COc1cccc(C2=C(c3cn(C)c4cc(F)ccc34)C(=O)NC2=O)c1	nM	4200
CCn1cnc2c(Nc3cccc(Cl)c3)nc(NCCN)nc21	nM	31500
O=C1NCc2c1c1c3ccccc3[nH]c1c1[nH]c3ccc(O)cc3c21	nM	980

Hi! Can you tell me IC50 for each of these compounds?
1. CC(C)n1cc(C2=C(c3nc(N4CCN(C)CC4)nc4ccccc34)C(=O)NC2=O)c2ccccc21
2. Nc1nccc(-c2c[nH]c3c(Br)ccc(O)c23)n1

1: 11; 2: 1300
